Could you please report measured growth inhibition for the items listed next?
# testMethodNotes: NCI Yeast Anticancer Drug Screen. Data for the bub3 strain (AID 167)
# runConditions: S. cerevisiae bub3 mutant strain, hits give high values; at 50.0 µM unless noted
# Protocol: Growth inhibition of yeast strains with defined genetic alterations is measured as a screen for potential anti-cancer activity. Selected strains with alterations in DNA damage repair or cell cycle control were exposed to compounds and growth inhibition was measured relative to vehicle treated controls. The strain used in this assay is bub3
Compounds without any hit were thinned out: in the full panel of roughly 79,000, 15% have a hit.
Give bare numbers, in %.

{"columns": ["molecule", "resultUnit", "growth inhibition"],
 "data": [
  ["COc1cccc(C2c3cc4c(cc3OC(NNS(=O)(=O)c3ccc(C)cc3)C2C)OCO4)c1OC (stereo unspecified)", "%", 36.9],
  ["CCCOC(=O)CCCC(=O)N(C(C)C)C(C)C", "%", 21.9],
  ["Cc1cn(C2CC(OP(=O)(O)OCC3OC(n4ccc(N)nc4=O)C(O)C3O)C(CO)O2)c(=O)[nH]c1=O (stereo unspecified)", "%", -23.6],
  ["CCOC(=O)C(Cc1c[nH]c2c(N(CCO)CCO)cccc12)(NC(C)=O)C(=O)OCC", "%", -5.55],
  ["c1ccc(-c2cn(-c3ccccc3)nn2)cc1", "%", -28.8],
  ["O=S1(=O)C(c2cccc(F)c2)=C(O)c2cc3ccccc3nc21", "%", -23.8]
]}

Hi team, please reply with growth inhibition for each item in this list.
1. CCOC(=O)/C(SC#N)=C(/N)N1CCCC1
2. COC(=O)Nc1ccc(Cc2ccc(NC(=O)OC)cc2)cc1
3. CCCCCCCCOC(=O)Nc1ccc(S(=O)(=O)NC2CCCCC2)cc1
4. CCCCCCCCCCCCCCCCCC(=O)N1CCN(C(=O)CCCCCCCCCCCCCCCCC)C1
5. O=[N+]([O-])c1cc(Cl)ccc1S(=O)(=O)N1CCCc2cc(Cl)ccc21

Result:
1. 0.75
2. 33.5
3. 10.8
4. -1.25
5. 63.6
